Listed here are compounds together with their documented MRT last.
ASSAY_REMARKS: in vivo
MEASUREMENT_CONDITIONS: male, Syrian golden, hamster, po, 500 mg/kg
State just the number; it will be interpreted in h.

Worked set:
CNc1nc(N)nc2c1ncn2C1OC(COP(=O)(O)NC(C)C(=O)O)C(O)C1(C)F (stereo not drawn) = 4.6
CNc1nc(N)nc2c1ncn2C1OC(COP(=O)(NC(C)C(=O)OC(C)C)Oc2ccccc2)C(O)C1(C)F (stereo not drawn) = 3.4

Specify MRT last for C[C@@]1(F)[C@H](O)[C@@H](CO)O[C@H]1n1cnc2c(=O)[nH]c(N)nc21 and stop.
9.8

The origin of these recorded values is paper PMC8812913.
